Molecular target: ProI (Bacillus subtilis, UniProt P54552)
Construct: full-length; pMCSG68, N-terminal His6-TEV tag removed; E. coli BL21 Gold; homodimer by SAXS
Sequence (P54552 whole entry): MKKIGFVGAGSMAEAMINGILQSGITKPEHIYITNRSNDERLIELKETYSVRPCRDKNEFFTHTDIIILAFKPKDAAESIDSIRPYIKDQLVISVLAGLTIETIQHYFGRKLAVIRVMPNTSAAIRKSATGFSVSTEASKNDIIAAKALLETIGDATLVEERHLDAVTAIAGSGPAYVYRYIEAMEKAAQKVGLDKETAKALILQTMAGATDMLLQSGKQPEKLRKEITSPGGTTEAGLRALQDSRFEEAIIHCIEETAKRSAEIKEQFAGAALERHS
Test: NAD(P)H oxidation at […] nm
readout: IC50 (mM)

I = NC(=O)c1ccc[n+]([C@@H]2O[C@H](COP(=O)(O)OP(=O)(O)OC[C@H]3O[C@@H](n4cnc5c(N)ncnc54)[C@H](O)[C@@H]3O)[C@@H](O)[C@H]2O)c1
II = NC(=O)c1ccc[n+]([C@@H]2O[C@H](COP(=O)(O)OP(=O)(O)OC[C@H]3O[C@@H](n4cnc5c(N)ncnc54)[C@H](OP(=O)(O)O)[C@@H]3O)[C@@H](O)[C@H]2O)c1
Incoming: Would you mind telling me which has the lower recorded IC50 between I and II ? Kindly give the label for the entry you pick.
Outgoing: II
